test: oral toxicity (LD50) in mice; conditions: mouse, in vivo, orally in mice
reported endpoint: LD50

Need LD50, item NC(=O)C(=O)[O-].[Na+] [Sodium oxamate, sodium oxamate]
> 2000 mg/kg
